Quick reference for IC50 among some binders
Target: T1, extracellular domain of human CD73 protein (CD73-ECD), C-terminus polyhistidine-tagged (UniProt P21589 27-547)
T1 chain: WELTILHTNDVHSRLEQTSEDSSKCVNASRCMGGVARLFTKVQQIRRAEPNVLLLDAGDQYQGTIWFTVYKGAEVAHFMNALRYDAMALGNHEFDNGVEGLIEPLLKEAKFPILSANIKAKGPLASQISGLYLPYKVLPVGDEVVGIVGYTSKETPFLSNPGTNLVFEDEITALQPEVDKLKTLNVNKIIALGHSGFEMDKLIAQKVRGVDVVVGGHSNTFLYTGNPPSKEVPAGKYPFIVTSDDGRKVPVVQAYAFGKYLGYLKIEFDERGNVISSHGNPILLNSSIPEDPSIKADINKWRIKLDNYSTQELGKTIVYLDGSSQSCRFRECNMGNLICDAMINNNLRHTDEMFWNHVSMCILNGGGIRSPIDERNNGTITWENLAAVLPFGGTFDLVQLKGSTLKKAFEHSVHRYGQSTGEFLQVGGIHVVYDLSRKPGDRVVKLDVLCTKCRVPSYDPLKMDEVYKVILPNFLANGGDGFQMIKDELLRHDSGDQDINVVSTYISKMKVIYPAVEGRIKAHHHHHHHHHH
Assay: enzyme inhibition; right table
Report the value in nM with no unit label.

Would you please look over these solved cases?
{"binder": "Hu002c-15 (antibody, V domains shown) VH: QVQLVQSGAEVKKPGASVKVSCKASGYTLTSYWMHWVKKAPGQGLEWIGEINPSQGRSNYNEKFKSKVTLTVDRSTSTVYMELSSLRSEDTAVYYCARRGVSGNYFDYWGQGTLVTVSS VL: DIQMTQSPSSLSASVGDRVTITCKASQDINTYLSWFQQKPGKSPKSLIYRSNILVSGVPSRFSGSGSGQDYTLTISSLQPEDFATYYCLQYDEFPYTFGGGTKLEIK", "IC50, nM": 0.075}
{"binder": "Hu002c-10 (antibody, V domains shown) VH: QVQLVQSGAEVKKPGASVKVSCKASGYTLTSYWMHWVRQAPGQGLEWIGEINPSQGRSNYNEKFKSKVTLTVDRSTSTVYMELSSLRSEDTAVYYCARRGVSGNYFDYWGQGTLVTVSS VL: DIQMTQSPSSLSASVGDRVTITCKASQDINTYLSWFQQKPGKAPKSLIYRSNILVSGVPSRFSGSGSGQDYTLTISSLQPEDFATYYCLQYDEFPYTFGQGTKLEIK", "IC50, nM": 0.059}

Kindly review the next binder as well.
query: State the recorded IC50 for this entry: Hu001c-23 (antibody, V domains shown) VH: QVQLVQSGAEVKKPGASVKVSCKASGYTFTNYYIYWVKQRPGQGLEWIGWIYPGNLNIKYNEKFKGRVTITADKSASTAYMELSSLRSEDTAVYYCARDDNYAWFAYWGQGTLVTVSS VL: DIQMTQSPSSLSASVGDRVTITCKASQDVSTAVAWYQQKPGKAPKLLIYWTNTRHTGVPSRFSGSGSGTDHTLTISSLQPEDFATYYCQQHYSTPFTFGQGTKLEIK
result: 0.04
